- System: Fibroblast
- TEST_NAME: Multiplex assay against human fibroblast
- Assay type: toxicity, cell-based
- CONDITION_DESCRIPTION: 24 h, 10 µM, compound concentration 10 uM, replicate 2
ENDPOINT_NAME: Population Normal (%)
Field: numeric (%). Do not append units.

C=CC(=O)Nc1cccc(C(=O)Nc2ccc(Nc3cc(-c4[nH]c(SC)nc4C)ccn3)cc2)c1 : 88
COc1cccc([C@@H](C)NCCCc2ccccc2Cl)c1.Cl [TECALCET HYDROCHLORIDE] : 91

# next compound below
Prompt line: Please look at this compound and report its Population Normal (%): Cc1cc(C)cc(-c2cnc3cc(Cl)c(-c4cccc(O)c4)cc3c2OCCCN)c1
Response line: 92

###

Each item that follows carries a reported Population Membrane Permeable-Phenotype (%).
- Test system: Fibroblast
- TEST_NAME: Multiplex assay against human fibroblast
- Assay type: toxicity, cell-based
- CONDITION_DESCRIPTION: 48 h, 1 µM, compound concentration 1 uM, replicate 1
Field: numeric (%). Do not append units.

Some solved entries appear below for comparison.
CN(C)CC#Cc1ccc(OCCCc2sc(N3CCc4cccc(C(=O)Nc5nc6ccccc6s5)c4C3)nc2C(=O)O)c(F)c1 : 20
CN(C)C(=O)N[C@H]1CC[C@H](CCN2CCN(c3cccc(Cl)c3Cl)CC2)CC1.Cl [CARIPRAZINE HYDROCHLORIDE] : 20
CNc1nc(NCc2ccc(NS(C)(=O)=O)cc2Cl)cc(-c2ccccn2)n1 : 23
CN1CCN(CCOc2cc(OC3CCOCC3)c3c(Nc4c(Cl)ccc5c4OCO5)ncnc3c2)CC1 : 11
O=C1NCN(c2ccccc2)C12CCN(CCCOc1ccc(F)cc1)CC2 [SPIRAMIDE] : 32
CC[C@H](C)C(=O)O[C@H]1C[C@@H](C)C=C2C=C[C@H](C)[C@H](CC[C@@H]3C[C@@H](O)CC(=O)O3)[C@H]21 : 26
Cc1nc(-c2ccc(-c3ccc(C(=O)N4CCc5cc6c(cc54)C4(CCN(C)CC4)CO6)cc3)c(C)c2)no1 : 8

Prompt line: Provide measured Population Membrane Permeable-Phenotype (%) on Fibroblast for COc1ncc(-c2ccc3nccc(-c4ccnnc4)c3c2)cc1NS(=O)(=O)c1ccc(F)cc1F please.
Response line: 21

###

- Test system: HEK-293T
- TEST_NAME: Incucyte cell viability with HEK293T; note: filed as whole numbers so only -1 and 0 and 1 occur
- Format: toxicity, cell-based
- CONDITION_DESCRIPTION: human, 0 h, 10 µM, compound concentration 10 uM, replicate number 1, timepoint 0 hours
Each item that follows carries a reported Growth Rate.
Note: the reply should be a number with no unit written.

Prompt line: Please look at this compound and report its Growth Rate: Cc1c(OCc2cccc(-c3ccc(C(=O)O)cc3)c2)cc2c(c1C)C(=O)C(C1CCCC1)C2 (centres undefined)
Response line: 0

Prompt line: Please look at this compound and report its Growth Rate: CSc1ccc(C(=O)N[C@@H]2CCCC[C@@H]2NC(=O)CNC(=O)c2cc(C(F)(F)F)ccc2NC(=O)NC(C)C)cc1
Response line: 1

Prompt line: Please look at this compound and report its Growth Rate: Cc1cccc([C@H](C)c2c[nH]cn2)c1C.Cl [DEXMEDETOMIDINE HYDROCHLORIDE]
Response line: 0

Prompt line: Please look at this compound and report its Growth Rate: CC(C)(C)NCC(O)COc1cccc2[nH]c(=O)[nH]c12.Cl (centres undefined)
Response line: 1

###

Each item that follows carries a reported Growth Rate.
- Test system: Fibroblast
- TEST_NAME: Incucyte cell viability with human fibroblast; note: filed as whole numbers so only -1 and 0 and 1 occur
- Assay type: toxicity, cell-based
- CONDITION_DESCRIPTION: 6 h, 10 µM, compound concentration 10 uM, replicate number 1, timepoint 6 hours

Clc1cccc(-c2nnnn2Cc2cccnc2)c1Cl : 1
CCc1cc(C(C)=O)c(O)cc1OCCCCCC(C)(C)c1nn[nH]n1 : 0
CS(=O)(=O)c1cccc(NC(=O)N(Cc2ccc(C(=O)Nc3nn[nH]n3)cc2)c2ccc(C3CCCCC3)cc2)c1 : 0
CC[C@H](C)C(=O)O[C@H]1C[C@@H](C)C=C2C=C[C@H](C)[C@H](CC[C@@H]3C[C@@H](O)CC(=O)O3)[C@H]21 : 1
O=C(O)C[C@H]1CCc2c1[nH]c1ccc(OCc3ccc(C4CCCC4)c(C(F)(F)F)c3)cc21 : 1
N#CC(Cc1ccc(O)cc1)c1ccc(O)cc1 (configuration not stated) : 0
Nc1c(C(=O)NCc2ccc(C(=O)NCCCC3CCCCC3)cc2)cnn1-c1ccccc1 : 1
C=CC(=O)Nc1cc2c(Nc3ccc(F)c(Cl)c3)ncnc2cc1OCCCN1CCOCC1.Cl.Cl [CANERTINIB DIHYDROCHLORIDE] : 0

# next compound below
Prompt line: Provide measured Growth Rate on Fibroblast for CN1C(=O)[C@@H](N2CCc3cn(Cc4ccccc4)nc3C2=O)COc2ccccc21 please.
Response line: 0

###

Each item that follows carries a reported Population Tubulin-Different-Phenotype (%).
- Test system: U2OS
- TEST_NAME: Multiplex assay against U2OS
- Format: toxicity, cell-based
- CONDITION_DESCRIPTION: human, 48 h, 10 µM, compound concentration 10 uM, replicate 1
I'd appreciate it if you wrote the number followed by its unit.

O=C1NCN(c2ccccc2)C12CCN(CCCOc1ccc(F)cc1)CC2 [SPIRAMIDE] : 28%
C[C@@]1(C(=O)Nc2ccc(F)nc2)CCCN1c1nc(Nc2cc(C3CC3)n[nH]2)c2cccn2n1 : 88%
COc1cc2nccc(Oc3ccc(NC(=O)Nc4cc(C)on4)c(Cl)c3)c2cc1OC.O : 100%
OC1(c2ccc(Cl)cc2)CCN(Cc2c[nH]c3ccccc23)CC1 : 62%
CCOCCn1cc(C(=O)Nc2ccc(-n3nc(-c4cccnc4)cc3C(F)(F)F)cn2)ccc1=O : 51%

Prompt line: Please look at this molecule and report its Population Tubulin-Different-Phenotype (%): CN1CCC[C@@H]1CCO[C@](C)(c1ccccc1)c1ccc(Cl)cc1.O=C(O)/C=C/C(=O)O [CLEMASTINE FUMARATE]
Response line: 50%

Prompt line: Please look at this molecule and report its Population Tubulin-Different-Phenotype (%): CCn1c(=O)c(-c2ccc(Cl)cc2Cl)cc2cnc(Nc3ccc(N4CCNCC4)c(F)c3)nc21
Response line: 75%

Prompt line: Please look at this molecule and report its Population Tubulin-Different-Phenotype (%): CN(C)CC#Cc1ccc(OCCCc2sc(N3CCc4cccc(C(=O)Nc5nc6ccccc6s5)c4C3)nc2C(=O)O)c(F)c1
Response line: 11%

Prompt line: Please look at this molecule and report its Population Tubulin-Different-Phenotype (%): C[C@@H](NCCCc1cccc(C(F)(F)F)c1)c1cccc2ccccc12.Cl [CINACALCET HYDROCHLORIDE]
Response line: 98%

Prompt line: Please look at this molecule and report its Population Tubulin-Different-Phenotype (%): COc1cc(-n2cnc3cc(-c4ccc(Cl)cc4)sc3c2=O)ccc1OCCN1CCCC1
Response line: 100%

Prompt line: Please look at this molecule and report its Population Tubulin-Different-Phenotype (%): NC(=O)Nc1cc(-c2cccc(F)c2)sc1C(=O)N[C@H]1CCCNC1
Response line: 33%

Prompt line: Please look at this molecule and report its Population Tubulin-Different-Phenotype (%): CC(C)(O)CNc1ncc(-c2ccnc(Nc3ccnc(Cl)c3)n2)c(CC2CC2)n1
Response line: 100%

Prompt line: Please look at this molecule and report its Population Tubulin-Different-Phenotype (%): CC[C@H](C)C(=O)O[C@H]1C[C@@H](C)C=C2C=C[C@H](C)[C@H](CC[C@@H]3C[C@@H](O)CC(=O)O3)[C@H]21
Response line: 4%

Prompt line: Please look at this molecule and report its Population Tubulin-Different-Phenotype (%): CN(C)C(=O)/C(C#N)=C/c1ccc(-c2nc3cnc4[nH]ccc4c3n2C2CCCCC2)o1
Response line: 36%

Prompt line: Please look at this molecule and report its Population Tubulin-Different-Phenotype (%): CNc1nc(NCc2ccc(NS(C)(=O)=O)cc2Cl)cc(-c2ccccn2)n1
Response line: 10%

###

Each item that follows carries a reported Growth Rate.
- Tested on: HEK-293T
- TEST_NAME: Incucyte cell viability with HEK293T; note: filed as whole numbers so only -1 and 0 and 1 occur
- Assay type: toxicity, cell-based
- CONDITION_DESCRIPTION: human, 24 h, 10 µM, compound concentration 10 uM, replicate number 2, timepoint 24 hours
Note: the reply should be a number with no unit written.

C[C@H](c1ccc(F)cc1)N(Cc1ccc(Cl)c(C(=O)O)c1)C(=O)c1cnc2ccccc2c1 : 0

# next molecule below
Prompt line: Please look at this molecule and report its Growth Rate: CC(=O)OCC(=O)[C@@]1(O)CC[C@H]2[C@@H]3CCC4=CC(=O)CC[C@]4(C)[C@@]3(F)[C@@H](O)C[C@@]21C [FLUDROCORTISONE ACETATE]
Response line: 0

###

Each item that follows carries a reported Population Hoechst High Intensity Objects (%).
- System: Fibroblast
- TEST_NAME: Multiplex assay against human fibroblast
- Format: toxicity, cell-based
- CONDITION_DESCRIPTION: 24 h, 1 µM, compound concentration 1 uM, replicate 1
Field: numeric (%). Do not append units.

O=C1NCN(c2ccccc2)C12CCN(CCCOc1ccc(F)cc1)CC2 [SPIRAMIDE] : 13

Prompt line: Please look at this compound and report its Population Hoechst High Intensity Objects (%): CN1CCC[C@@H]1CCO[C@](C)(c1ccccc1)c1ccc(Cl)cc1.O=C(O)/C=C/C(=O)O [CLEMASTINE FUMARATE]
Response line: 32

Prompt line: Please look at this compound and report its Population Hoechst High Intensity Objects (%): COc1ncc(-c2ccc3nccc(-c4ccnnc4)c3c2)cc1NS(=O)(=O)c1ccc(F)cc1F
Response line: 10

Prompt line: Please look at this compound and report its Population Hoechst High Intensity Objects (%): C[C@@H](NCCCc1cccc(C(F)(F)F)c1)c1cccc2ccccc12.Cl [CINACALCET HYDROCHLORIDE]
Response line: 15

Prompt line: Please look at this compound and report its Population Hoechst High Intensity Objects (%): C=CC(=O)Nc1cc2c(Nc3ccc(F)c(Cl)c3)ncnc2cc1OCCCN1CCOCC1.Cl.Cl [CANERTINIB DIHYDROCHLORIDE]
Response line: 41

Prompt line: Please look at this compound and report its Population Hoechst High Intensity Objects (%): CN(C)C(=O)/C(C#N)=C/c1ccc(-c2nc3cnc4[nH]ccc4c3n2C2CCCCC2)o1
Response line: 14
